ASSAYED_SYSTEM: NLRP3 (Mus musculus, UniProt Q8R4B8)
Sequence (Q8R4B8 whole entry): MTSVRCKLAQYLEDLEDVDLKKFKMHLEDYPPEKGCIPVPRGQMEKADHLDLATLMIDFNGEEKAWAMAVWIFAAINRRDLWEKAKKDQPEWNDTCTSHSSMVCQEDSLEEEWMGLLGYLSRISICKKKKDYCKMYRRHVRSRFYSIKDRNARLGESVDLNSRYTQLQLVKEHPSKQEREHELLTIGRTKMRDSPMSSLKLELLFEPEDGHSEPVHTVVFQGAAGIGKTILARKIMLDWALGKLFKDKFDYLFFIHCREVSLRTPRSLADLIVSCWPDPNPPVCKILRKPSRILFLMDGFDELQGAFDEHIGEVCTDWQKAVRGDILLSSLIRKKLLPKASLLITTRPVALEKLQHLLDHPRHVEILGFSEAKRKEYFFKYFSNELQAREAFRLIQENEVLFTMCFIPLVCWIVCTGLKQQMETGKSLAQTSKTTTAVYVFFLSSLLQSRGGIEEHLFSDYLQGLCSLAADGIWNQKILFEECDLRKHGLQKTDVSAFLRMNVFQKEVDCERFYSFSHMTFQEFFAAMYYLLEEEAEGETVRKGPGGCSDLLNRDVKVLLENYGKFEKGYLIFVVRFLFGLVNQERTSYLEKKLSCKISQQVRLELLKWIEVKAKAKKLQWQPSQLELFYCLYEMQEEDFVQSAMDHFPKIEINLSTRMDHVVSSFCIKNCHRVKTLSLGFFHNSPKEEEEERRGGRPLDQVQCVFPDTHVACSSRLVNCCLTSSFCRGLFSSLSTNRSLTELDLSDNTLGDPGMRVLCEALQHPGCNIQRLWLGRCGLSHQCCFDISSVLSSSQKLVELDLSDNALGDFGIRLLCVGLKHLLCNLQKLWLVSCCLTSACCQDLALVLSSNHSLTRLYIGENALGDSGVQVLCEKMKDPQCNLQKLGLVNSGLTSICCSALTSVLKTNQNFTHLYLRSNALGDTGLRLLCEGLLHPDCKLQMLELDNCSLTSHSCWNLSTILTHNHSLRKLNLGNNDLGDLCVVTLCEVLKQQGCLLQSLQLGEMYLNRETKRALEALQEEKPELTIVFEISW
TEST_PROTOCOL: NLRP3-mediated inflammasome activity, secreted IL-1β ELISA in LPS-primed immortalized BMDMs (nigericin, MSU, silica)
QUANTITY_MEASURED: pIC50
A value of pIC50 is the negative decimal logarithm of a concentration given in moles per litre.

## Task Please give measured pIC50 of the following entry: CCCN(CCC)S(=O)(=O)c1ccc(-c2ccc(CCCC(=O)O)cc2)cc1
## Result 4.52
